- testDescription: In vivo pharmacokinetic interaction study in rats (plasma)
- Set-up: species or system rat
- runConditions: male, Sprague-Dawley, rat, plasma, po, 2 mg/kg, oral amifampridine 2 mg/kg, acetaminophen-treated group (100 mg/kg ip)
endpointName: Vd/F (L/kg)
Please state the figure in L/kg; there is no need to write the unit.

Q) Fill blank: measured Vd/F of the compound Nc1ccncc1N [amifampridine] is ____.
A) 9.83

###

- testDescription: Tissue distribution of amifampridine and 3-N-acetylamifampridine in rats
- Assay type: in vivo, rat
- runConditions: male, Sprague-Dawley, rat, muscle; 60 min after oral amifampridine 2 mg/kg, acetaminophen 100 mg/kg; read-out: Tissue partition coefficient (Kp), Muscle
Entries and their Kp at 1 h values follow.
Please state the value as a number alone, without comment.

CC(=O)Nc1cnccc1N [3-N-acetylamifampridine]: 0.9

Field: next compound
Q) Fill blank: measured Kp at 1 h of the compound Nc1ccncc1N [amifampridine] is ____.
A) 0.4

These data points were gathered from paper PMC10221159.
